This collection of values is drawn from patent US6916923B2.

tested on: colon adenocarcinoma line SW480; test: SW480 cell-based antiproliferative (MTT) assay; conditions: Homo sapiens, SW480, 144 h, 1000 cells per well, 6 days post addition of test compound, read-out: Antiproliferative Activity SW480 (colon) Assay - IC50 Range
pIC50: −log10 of the molar value.
Overview of recorded pIC50 for various compounds

O=[N+]([O-])c1ccc2c(c1)C(c1ccccc1F)=Nc1c[nH]nc1N2 = 5.00 to 5.96
CC(C)c1[nH]nc2c1N=C(c1ccccc1Cl)c1cc([N+](=O)[O-])ccc1N2 = 6.00 to 8.00
Cc1[nH]nc2c1N=C(c1ccccc1Cl)c1cc([N+](=O)[O-])ccc1N2 = 6.00 to 8.00

Attention now shifts to the item below.
Q: What pIC50 value was documented for this compound, `COc1ccc2c(c1)C(c1ccccc1Cl)=Nc1c(n[nH]c1C)N2` ?
Result: 5.00 to 5.96

---

biological target: Recombinant active human Cyclin E/CDK2 complexes (Homo sapiens); assay: CDK2 FlashPlate Assay (inhibition of Rb phosphorylation); settings: Cyclin E/CDK2, Rb substrate, 33P-ATP, 25 minutes at room temperature; read-out: Inhibition of Cdk2 - IC50 Range
readout kind: IC50

O=C(NCCO)c1ccc2c(c1)C(c1ccccc1F)=Nc1c[nH]nc1N2 = 0.01 to 0.99 µM
C=Cc1[nH]nc2c1N=C(c1ccccc1Cl)c1cc([N+](=O)[O-])ccc1N2 = 0.01 to 0.99 µM
O=[N+]([O-])c1ccc2c(c1)C(c1ccccc1)=Nc1c[nH]nc1N2 = 0.01 to 0.99 µM
Cc1ccccc1-c1[nH]nc2c1N=C(c1ccccc1Cl)c1cc([N+](=O)[O-])ccc1N2 = 1 to 9.99 µM
O=[N+]([O-])c1ccc2c(c1)C(c1ccccc1Cl)=Nc1c(n[nH]c1-c1ccco1)N2 = 0.01 to 0.99 µM
Clc1ccc2c(c1)C(c1ccccc1)=Nc1c[nH]nc1N2 = 1 to 9.99 µM

Q: What IC50 value was documented for this compound, `Cc1[nH]nc2c1N=C(c1ccccc1F)c1cc(C(N)=O)ccc1N2` ?
Result: 0.01 to 0.99 µM

Q: What IC50 value was documented for this compound, `Cc1[nH]nc2c1N=C(c1ccccc1F)c1cc(I)ccc1N2` ?
Result: 0.01 to 0.99 µM

Q: What IC50 value was documented for this compound, `N#Cc1ccc2c(c1)C(c1ccccc1F)=Nc1c(n[nH]c1CO)N2` ?
Result: 0.01 to 0.99 µM

---

Tested on: colon adenocarcinoma line SW480
Assay: SW480 cell-based antiproliferative (MTT) assay
Conditions: Homo sapiens, SW480, 144 h, 1000 cells per well, 6 days post addition of test compound, read-out: Antiproliferative Activity SW480 (colon) Assay - IC50 Range
Description: The estrogen receptor negative epithelial breast carcinoma line (MDA-MB-435) was purchased from American Type Cell Culture Collection (ATCC; Rockville, Md.) and was grown in the medium recommended by ATCC. […] Each compound was diluted with sterile medium to 1 mM in a sufficient quantity to yield a final concentration of 120 μM. […] The plates were returned to the incubator, and 5 days post addition of test compound, were analyzed as described below. […]
readout kind: IC50

Cc1[nH]nc2c1N=C(c1ccccc1F)c1cc(C(N)=O)ccc1N2 = 0.01 to 1 µM
CCOC(=O)c1ccc2c(c1)C(c1ccccc1F)=Nc1c(n[nH]c1C)N2 = 1.1 to 9.99 µM
Cc1[nH]nc2c1N=C(c1ccccc1F)c1cc(F)ccc1N2 = 0.01 to 1 µM
N#Cc1ccc2c(c1)C(c1ccccc1F)=Nc1c(n[nH]c1CO)N2 = 0.01 to 1 µM

Attention now shifts to the item below.
Q: What IC50 value was documented for this compound, `CC(=O)Nc1ccc2c(c1)C(c1ccccc1Cl)=Nc1c(n[nH]c1C)N2` ?
Result: 0.01 to 1 µM
